# tested.system: HRgpA-6H (Porphyromonas gingivalis) (UniProt P28784)
# measurement.description: ELISA, Fab FASEBA supernatant on coated HRgpA-6H (0.0625 ug/ml)
reported.endpoint: Ratio OD(Variant)/OD(WT)

Asked: Ratio OD(Variant)/OD(WT) lookup needed for KB001 parental mouse Fab VH variant A103M (Fab, V domains shown) VH: EVQLKQSGPGLVAPSQSLSITCTVSGFSLSIYSVHWVRQPPGKGLEWLGMIWGGGSSDYNSALKSRLSISKDNSKSQVFLKMNSLQTDDTAMYYCARNGNFYMMDYWGQGTSVTVSS VL: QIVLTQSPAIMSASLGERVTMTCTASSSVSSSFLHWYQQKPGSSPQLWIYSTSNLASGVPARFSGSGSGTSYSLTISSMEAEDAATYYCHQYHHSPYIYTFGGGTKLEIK , thanks.
Given back: 0.941

Asked: Query: Ratio OD(Variant)/OD(WT); subject: KB001 parental mouse Fab VH variant K64Q (Fab, V domains shown) VH: EVQLKQSGPGLVAPSQSLSITCTVSGFSLSIYSVHWVRQPPGKGLEWLGMIWGGGSSDYNSALQSRLSISKDNSKSQVFLKMNSLQTDDTAMYYCARNGNFYAMDYWGQGTSVTVSS VL: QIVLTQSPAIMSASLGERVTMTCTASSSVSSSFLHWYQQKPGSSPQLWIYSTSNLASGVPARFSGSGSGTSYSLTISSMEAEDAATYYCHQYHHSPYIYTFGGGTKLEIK
Given back: 0.954

Asked: May I ask what Ratio OD(Variant)/OD(WT) has been recorded for KB001 parental mouse Fab VH variant G99A (Fab, V domains shown) VH: EVQLKQSGPGLVAPSQSLSITCTVSGFSLSIYSVHWVRQPPGKGLEWLGMIWGGGSSDYNSALKSRLSISKDNSKSQVFLKMNSLQTDDTAMYYCARNANFYAMDYWGQGTSVTVSS VL: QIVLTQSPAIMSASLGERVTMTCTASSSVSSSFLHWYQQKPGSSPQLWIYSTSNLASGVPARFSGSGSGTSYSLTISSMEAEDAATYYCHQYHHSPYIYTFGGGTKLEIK ?
Given back: 0.928
